Test system: MS2 coat protein
Assay: apparent Kd, MS2 coat protein; higher = weaker binding; RNA-MaP array; FMN 200 µM where present
Conditions: ligand present: flavin mononucleotide; designed as: OFF switch for flavin mononucleotide
Assay metric: apparent Kd (nM)

• GACUGCUGAGGAUAUACAUGAGGAUCACCCAUGUGCUUCAGCUACGAGAGUAGCAUUGGUAGAAGGUAGUAGUC = 22.1
• ACAAAUUAGUGAGGAUAUGCAUAAUUUAUAACUGCAGAAGGCACAAACCUCAAGACAUGAGGAUCACCCAUGUGGAAUAUAGAU = 182
• UGAUAACAUGAGGAUCACCCAUGUCAGGAUAUAAAUUGAGCUCCUUGGACGCCACCGUUUAGAAGGGACGCAUG = 22.7
• AAAUAACAUGUAGGAUAUGCAGCAUUAACCAUCGCAGAAGGACAUGAGGAUCACCCAUGUGGCGAUACAAUGCAAUAAGGGAAU = 40.7
• AACUUCCCGUCAGGAUAUCGCCGUAGGUCCUCGGGUCUCGCCGUCAUACAUGAGGAUCACCCAUGUGAGAAGGGACGGGAUUCA = 117
• UAUAUAUAGUAAGGAUAUGUAUAUAGUUUAUAAACAGAAGGUACUGACAUGAGGAUCACCCAUGUUUUAGUGUGGGCAUGUAGA = 99.5
• UCACGGGAUUGAGGAUAUAUAUUAAUUUUUACAAUAGAAGGCAAAUUGUUAGUUUUUUCACUAUACAUGAGGAUCACCCAUGUU = 25.1
